System: KB
experiment.summary: Cytotoxicity against human KB cells by MTT assay
Format: functional
condition: read-out: ED50 (the source's name)
readout.label: EC50 (µg/mL)
One number for each entry, in µg/mL.

Example entries begin here.
CC(=O)O[C@H]1C[C@H](O)[C@H](C)[C@H]2[C@@]1(C)[C@]1(OC(C)=O)CC/C(C)=C\[C@@H]3OC(=O)[C@@]4(C)O[C@]34[C@]21O [EXCAVATOLIDE E]    0.8
CC(=O)O[C@H]1C[C@H](O)[C@H](C)[C@H]2[C@@]1(C)[C@]1(O)[C@@H](OC(C)=O)C/C(C)=C\[C@@H]3OC(=O)[C@@]4(C)O[C@]34[C@]21OC(C)=O [EXCAVATOLIDE D]    4.2
CC(=O)O[C@H]1C[C@H](O)[C@H](C)[C@H]2[C@@]1(C)[C@]1(OC(C)=O)[C@@H](OC(C)=O)C/C(C)=C\[C@@H]3OC(=O)[C@@]4(C)O[C@]34[C@]21OC(C)=O [EXCAVATOLIDE C]    1.9

Shifting focus to the compound that follows.
In: Fill in EC50 for C=C1[C@@H]2C[C@@]3(OC(C)=O)[C@@]4(C)[C@@H](OC(C)=O)CC=C(C)[C@@H]4[C@@]3(O)[C@]3(O2)[C@@H](C)C(=O)O[C@H]3[C@H]1Cl [EXCAVATOLIDE A] tested with KB.
Out: 2.5

Hey, just so you know, these numbers are from ChEMBL document CHEMBL1150878.
